system: HPV-16; test: qPCR sensitivity against HPV-HNSCC tumor samples diluted among 10 ng normal human DNA; settings: Sample # 8
Measured Property: Threshold of tumor cell numbers for HPV-16 detection (tumor cells)
Numbers only; they are read as tumor cells.

Completed entries (count: 3):
# Molecule, Result
records = [
    ("HR E5L2-4: primer/probe set for junction between E5 and L2, SEQ ID NO: 55-57 (same as SEQ ID NO: 4-6) (nucleic acid, chemistry not given here) DNA 1: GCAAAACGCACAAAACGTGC DNA 2: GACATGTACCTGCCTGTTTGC DNA 3: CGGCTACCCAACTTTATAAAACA", 15.0),
    ("E7: previously designed (historical) HPV-16 E7 primers and Taqman probe, SEQ ID NO: 10-12; part of CLIA test (nucleic acid, Taqman probe, labels not given here, part of CLIA test) DNA 1: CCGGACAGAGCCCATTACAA DNA 2: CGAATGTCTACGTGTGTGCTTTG DNA 3: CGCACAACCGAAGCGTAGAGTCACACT", 15.0),
    ("BR E1-5: HPV-16 E1 region primer/probe set, SEQ ID NO: 40-42 (same as SEQ ID NO: 1-3) (nucleic acid, chemistry not given here) DNA 1: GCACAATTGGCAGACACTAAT DNA 2: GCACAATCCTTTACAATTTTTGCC DNA 3: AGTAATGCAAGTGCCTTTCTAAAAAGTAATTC", 30.0),
]

# input for lookup
### Prompt Entry under review: BR E1-6: HPV-16 E1 region primer/probe set, SEQ ID NO: 43-45 (nucleic acid, chemistry not given here) DNA 1: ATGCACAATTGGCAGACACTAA DNA 2: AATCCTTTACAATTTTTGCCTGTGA DNA 3: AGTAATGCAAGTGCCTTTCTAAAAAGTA . Reported Threshold of tumor cell numbers for HPV-16 detection?
### Response 15.0
